# Test system: Saccharomyces cerevisiae
# experimental.details: Antifungal activity against Saccharomyces cerevisiae after 24 hrs by two-fold serial dilution method
# Assay type: functional
Assign MIC to each entry below.
Give bare numbers, in µg/mL.

Record excerpt, results attached:
1) Fc1ccccc1N(Cc1ccc(Cl)c(Cl)c1)Cc1nc2ccccc2[nH]1
64
2) FC(F)(F)c1cc(NCc2nc3ccccc3[nH]2)cc(C(F)(F)F)c1
2
3) FC(F)(F)c1cc(N(Cc2nc3ccccc3[nH]2)Cc2ccc(Cl)cc2Cl)cc(C(F)(F)F)c1
32
4) Cc1ccc(N(Cc2ccc(Cl)cc2)Cc2nc3ccccc3[nH]2)cc1
128

Need MIC for each of these molecules.
1. FC(F)(F)c1cccc(N(Cc2nc3ccccc3[nH]2)Cc2ccc(Cl)cc2Cl)c1
2. Cc1ccc(N(Cc2nc3ccccc3[nH]2)Cc2ccc(F)cc2F)cc1
3. Fc1ccc(NCc2nc3ccccc3[nH]2)cc1
4. Cc1ccc(NCc2nc3ccccc3[nH]2)cc1
5. OC(Cn1cncn1)(Cn1cncn1)c1ccc(F)cc1F [FLUCONAZOLE]
6. FC(F)(F)c1cccc(NCc2nc3ccccc3[nH]2)c1
7. Fc1ccc(N(Cc2nc3ccccc3[nH]2)Cc2ccc(Cl)cc2Cl)cc1

Marked response:
1: 32; 2: 64; 3: 64; 4: 64; 5: 16; 6: 32; 7: 64
